These entries and their values trace back to ChEMBL document CHEMBL3826881.

system.name: Transmembrane protease serine 6 (Homo sapiens, UniProt Q8IU80)
Sequence (Q8IU80 whole entry): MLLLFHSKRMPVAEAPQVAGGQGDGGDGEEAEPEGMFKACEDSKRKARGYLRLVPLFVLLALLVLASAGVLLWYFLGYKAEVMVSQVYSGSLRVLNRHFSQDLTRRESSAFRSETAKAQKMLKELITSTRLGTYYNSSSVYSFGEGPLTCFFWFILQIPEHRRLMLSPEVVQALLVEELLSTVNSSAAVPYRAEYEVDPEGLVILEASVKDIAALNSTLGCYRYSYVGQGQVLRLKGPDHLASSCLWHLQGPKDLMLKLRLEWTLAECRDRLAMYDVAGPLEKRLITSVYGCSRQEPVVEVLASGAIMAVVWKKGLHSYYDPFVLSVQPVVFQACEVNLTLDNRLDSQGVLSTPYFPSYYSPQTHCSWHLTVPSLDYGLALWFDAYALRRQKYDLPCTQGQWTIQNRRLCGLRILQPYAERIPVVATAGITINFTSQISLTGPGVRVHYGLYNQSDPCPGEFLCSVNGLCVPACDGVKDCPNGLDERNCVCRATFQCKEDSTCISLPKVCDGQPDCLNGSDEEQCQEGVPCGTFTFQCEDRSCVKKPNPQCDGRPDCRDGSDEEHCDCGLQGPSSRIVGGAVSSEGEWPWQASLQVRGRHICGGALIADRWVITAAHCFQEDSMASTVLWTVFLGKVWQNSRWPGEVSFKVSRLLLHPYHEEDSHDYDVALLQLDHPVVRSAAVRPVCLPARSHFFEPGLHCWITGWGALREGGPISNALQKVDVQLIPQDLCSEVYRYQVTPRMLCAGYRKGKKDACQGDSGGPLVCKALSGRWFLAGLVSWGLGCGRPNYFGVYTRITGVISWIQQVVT
experimental.details: Inhibition of human matriptase-2 transfected in HEK cells using Boc-Gln-Ala-Arg-AMC as substrate after 20 mins by fluorimetric analysis
Collected pKi values appear next to each entry.
API: returns pKi as number; meaning -log10 of concentration in mol/L.

Before answering, review these 5 worked examples.
[
  {
    "molecular.string": "N=C(N)c1ccc(N2CCCN(c3ccc(C(=N)N)cc3)CC2)cc1",
    "pKi": 5.36
  },
  {
    "molecular.string": "N=C(N)c1ccc(NCCCCCCCNc2ccc(C(=N)N)cc2)cc1",
    "pKi": 5.43
  },
  {
    "molecular.string": "N=C(N)c1ccc(OCc2ccc(COc3ccc(C(=N)N)cc3)cc2)cc1",
    "pKi": 5.24
  },
  {
    "molecular.string": "N=C(N)c1ccc(NCCCCCCCCNc2ccc(C(=N)N)cc2)cc1",
    "pKi": 5.79
  },
  {
    "molecular.string": "N=C(N)c1ccc(N2CCN(c3ccc(C(=N)N)cc3)CC2)cc1",
    "pKi": 5.94
  }
]

Param request: pKi | system Transmembrane protease serine 6 (Homo sapiens, UniProt Q8IU80) | item `N=C(N)c1ccc(NC(=O)C(=O)Nc2ccc(C(=N)N)cc2)cc1` 5.21

Param request: pKi | system Transmembrane protease serine 6 (Homo sapiens, UniProt Q8IU80) | item `N=C(N)c1ccc(OCc2ccccc2COc2ccc(C(=N)N)cc2)cc1` 5.28

----------
Record: log10 of Ki reported on Prothrombin (Homo sapiens, UniProt P00734).
Scale type: logarithmic (base 10). Underlying Ki unit: µM.

Before answering, review these 4 worked examples.
[
  {
    "molecular.string": "N=C(N)c1ccc(N2CCN(c3ccc(C(=N)N)cc3)CC2)cc1",
    "system.name": "Prothrombin (Homo sapiens, UniProt P00734)",
    "log10 of Ki": 1.00
  },
  {
    "molecular.string": "N=C(N)c1ccc(OCc2ccccc2COc2ccc(C(=N)N)cc2)cc1",
    "system.name": "Prothrombin (Homo sapiens, UniProt P00734)",
    "log10 of Ki": -0.55
  },
  {
    "molecular.string": "N=C(N)c1ccc(NC(=O)C(=O)Nc2ccc(C(=N)N)cc2)cc1",
    "system.name": "Prothrombin (Homo sapiens, UniProt P00734)",
    "log10 of Ki": 1.20
  },
  {
    "molecular.string": "N=C(N)c1ccc(N2CCCN(c3ccc(C(=N)N)cc3)CC2)cc1",
    "system.name": "Prothrombin (Homo sapiens, UniProt P00734)",
    "log10 of Ki": 0.72
  }
]

# next compound below
Return log10 of Ki for the following compound: `N=C(N)c1ccc(NCCCCCCCCNc2ccc(C(=N)N)cc2)cc1` -0.50
